Reference for the values: PubChem BioAssay (NCI)

System: SNB-75 CNS
Assay: NCI tumour cell line growth inhibition, 48 h
Where a SMILES comes first, the peptide text is derived from it. [ ]: non-standard residue; d: D form. Phe(4-NO2) = N[CH](Cc1ccc([N+](=O)[O-])cc1)C(=O)O
property-name: TGI (µM)

{"compound": "O[C@H]1[C@H](O)[C@@H](O)[C@@]2(O)CC[C@@H]1N2", "property-name": "TGI", "unit-descriptor": "µM", "operator-symbol": ">", "readout-number": 100}
{"compound": "C=C1CCCC(C)(C)C1CCC1(C)CCC(C(C)C(=O)OC)OO1 (centres undefined)", "property-name": "TGI", "unit-descriptor": "µM", "operator-symbol": "=", "readout-number": 7.56}
{"compound": "NC(=O)c1cccc(N=c2oc3ccc(Br)cc3cc2-c2nc3ccccc3[nH]2)c1", "property-name": "TGI", "unit-descriptor": "µM", "operator-symbol": "=", "readout-number": 23.6}
{"compound": "CCOC(=O)Cn1c(=O)c2nc(SC)sc2n(-c2ccccc2)c1=S", "property-name": "TGI", "unit-descriptor": "µM", "operator-symbol": "=", "readout-number": 12.5}
{"compound": "CCCc1cc(=O)n2c(C(=O)Nc3cccc(C(=O)OCC)c3)c(C(=O)Nc3ccc(F)cc3)sc2n1", "property-name": "TGI", "unit-descriptor": "µM", "operator-symbol": "=", "readout-number": 17.5}
{"compound": "C=C1C(=O)O[C@H]2C[C@@H]1CC/C(C)=C/CC/C(C)=C/CC[C@@]2(C)O", "property-name": "TGI", "unit-descriptor": "µM", "operator-symbol": ">", "readout-number": 100}
{"compound": "OC[P+](CO)(CO)C12CC3CC(CC(C3)C1)C2", "property-name": "TGI", "unit-descriptor": "µM", "operator-symbol": ">", "readout-number": 100}
{"compound": "O=C(O)COc1ccc(C(=O)/C(SS/C(C(=O)c2ccc(OCC(=O)O)c(Cl)c2Cl)=C2\\C=C(c3ccc(Cl)cc3)SS2)=C2/C=C(c3ccc(Cl)cc3)SS2)c(Cl)c1Cl", "property-name": "TGI", "unit-descriptor": "µM", "operator-symbol": "=", "readout-number": 31}
{"compound": "O=c1/c(=C/c2ccc([N+](=O)[O-])o2)sc2n1[C@@H](c1ccc(Cl)cc1)C=C(c1cc(F)c(Cl)cc1Cl)N=2", "property-name": "TGI", "unit-descriptor": "µM", "operator-symbol": ">", "readout-number": 100}
{"compound": "CC(=NNC(=S)Nc1cccc(C)c1)c1cccc(C(C)=NNC(=S)Nc2cccc(C)c2)n1", "property-name": "TGI", "unit-descriptor": "µM", "operator-symbol": "=", "readout-number": 69.2}
{"compound": "CC/C(=C(/c1ccc(O)cc1)c1ccc(OCCN)cc1)c1ccccc1", "property-name": "TGI", "unit-descriptor": "µM", "operator-symbol": "=", "readout-number": 12.1}
{"compound": "COC(=O)c1ccccc1N1C(=O)Cc2ccccc2C1=O", "property-name": "TGI", "unit-descriptor": "µM", "operator-symbol": "=", "readout-number": 74}
{"compound": "O=C(CC(C(=O)c1cccs1)c1ccsc1)c1ccccc1 (centres undefined)", "property-name": "TGI", "unit-descriptor": "µM", "operator-symbol": ">", "readout-number": 100}
{"compound": "Cc1nc(-c2nc(-c3ccc(OC(F)(F)F)cc3)no2)nn1Cc1cccc(N2CCC(S(C)(=O)=O)CC2)c1", "property-name": "TGI", "unit-descriptor": "µM", "operator-symbol": "=", "readout-number": 48.5}
{"compound": "CN(C)CCCNC(=O)CCNC(=O)c1cc(NC(=O)c2cc(NC(=O)c3cc(NC(=O)c4nccn4C)cn3C)cn2C)cn1C", "property-name": "TGI", "unit-descriptor": "µM", "operator-symbol": ">", "readout-number": 100}
{"compound": "C/C(=N\\NC(=S)NCCCCNC(=S)N/N=C(\\C)c1ccccn1)c1ccccc1", "property-name": "TGI", "unit-descriptor": "µM", "operator-symbol": "=", "readout-number": 9.92}
{"compound": "NC(N)=NC(N)=Nc1cnccn1", "property-name": "TGI", "unit-descriptor": "µM", "operator-symbol": ">", "readout-number": 100}
{"compound": "COc1ccc2cc(C(=O)/C=C/c3ccc(N(C)C)cc3)ccc2c1", "property-name": "TGI", "unit-descriptor": "µM", "operator-symbol": ">", "readout-number": 100}
{"compound": "O=c1cc(CSc2c(-c3ccccc3)c(=O)n(-c3ccccc3)c(=S)n2-c2ccccc2)[nH]c(=O)[nH]1", "property-name": "TGI", "unit-descriptor": "µM", "operator-symbol": ">", "readout-number": 100}
{"compound": "O=C(NC(=O)c1ccccc1[N+](=O)[O-])Nc1ccc(Oc2ncc(Cl)cn2)c([N+](=O)[O-])c1", "property-name": "TGI", "unit-descriptor": "µM", "operator-symbol": "=", "readout-number": 0.313}
{"compound": "O=c1[nH]nc(Cc2ccccc2)n1CCCl", "property-name": "TGI", "unit-descriptor": "µM", "operator-symbol": ">", "readout-number": 100}
{"compound": "CN(C)CCNC(=O)c1cccc2c(NC(CS)C(=O)O)c3ccccc3[n+](C)c12 (centres undefined)", "property-name": "TGI", "unit-descriptor": "µM", "operator-symbol": ">", "readout-number": 100}
{"compound": "COc1ccc(Cn2cc3c(c2-c2ccccc2)CCc2cnoc2-3)cc1OC", "property-name": "TGI", "unit-descriptor": "µM", "operator-symbol": "=", "readout-number": 5.26}
{"compound": "COC(=O)C1=CO[C@@H](OC2OC(CO)C(O)C(O)C2O)[C@H]2[C@@H](C)[C@@H](O)[C@@H](O)[C@@H]12 (some centres undefined)", "property-name": "TGI", "unit-descriptor": "µM", "operator-symbol": ">", "readout-number": 100}
{"compound": "CCOC(=O)c1cc2c3c(c(C(C)=O)c(O)c2[nH]1)N(C(C)=O)CC3", "property-name": "TGI", "unit-descriptor": "µM", "operator-symbol": ">", "readout-number": 100}
{"compound": "Cc1c2c(OCC(O)CN3CCN(c4ccccc4)CC3)nn(C)c(=O)c2c(C)n1-c1ccccc1 (centres undefined)", "property-name": "TGI", "unit-descriptor": "µM", "operator-symbol": "=", "readout-number": 75.5}
{"compound": "CC(NC(=O)C(Cc1ccc([N+](=O)[O-])cc1)NC(=O)C(N)CCCCN)C(=O)NC(Cc1ccc([N+](=O)[O-])cc1)C(N)=O (centres undefined) (H-K[Phe(4-NO2)]A[Phe(4-NO2)]-NH2; configuration not given here)", "property-name": "TGI", "unit-descriptor": "µM", "operator-symbol": ">", "readout-number": 100}
{"compound": "Cc1occc1C(=S)Nc1ccc(Cl)c(/C=N/OC(C)(C)C)c1", "property-name": "TGI", "unit-descriptor": "µM", "operator-symbol": "=", "readout-number": 56.7}
{"compound": "CCOC(=O)Nc1nc2ccc(Br)cc2s1", "property-name": "TGI", "unit-descriptor": "µM", "operator-symbol": ">", "readout-number": 50}
